Below is a list of entries, each paired with its recorded Log10LC50 value.
# Test system: HS 578T
# TEST_SUMMARY: NCI screening panel, HS 578T (Breast Cancer)
# Assay type: cell-based, human

Sample answers from the record:
[[record]]
compound = "CC(C)C[C@H](NC(=O)[C@H](COC(F)F)NC(=O)[C@H](COC(F)F)NC(=O)[C@H](COC(F)F)NC(=O)CN1CCOCC1)C(=O)[C@@]1(C)CO1 [Example 17]"
endpoint_value = ">−4.00"

[[record]]
compound = "CC(C)C[C@H](NC(=O)[C@H](COC(F)F)NC(=O)CN1CCOCC1)C(=O)N[C@@H](Cc1ccccc1)C(=O)N[C@@H](Cc1ccccc1)C(=O)[C@@]1(C)CO1 [Example 3]"
endpoint_value = ">−4.00"


Incoming: What value of measured Log10LC50 is listed for CC(C)C[C@H](NC(=O)[C@H](COC(F)F)NC(=O)CN1CCOCC1)C(=O)N[C@@H](COC(F)F)C(=O)N[C@@H](Cc1ccccc1)C(=O)[C@@]1(C)CO1 [Example 4] ?
Outgoing: >−4.00

----------
# Test system: NCI-H23
# TEST_SUMMARY: NCI screening panel, NCI-H23 (Non-Small Cell Lung Cancer)
# Assay type: cell-based, human
RECORDED_METRIC: Log10GI50
Number, no unit, nothing else.

Previously resolved entries follow.
[[record]]
compound = "CC(C)C[C@H](NC(=O)[C@H](Cc1ccccc1)NC(=O)[C@H](COC(F)F)NC(=O)[C@H](COC(F)F)NC(=O)CN1CCOCC1)C(=O)[C@@]1(C)CO1 [Example 11]"
system_name = "NCI-H23"
recorded_metric = "Log10GI50"
endpoint_value = "−7.50"

[[record]]
compound = "CC(C)C[C@H](NC(=O)[C@H](COC(F)F)NC(=O)CN1CCOCC1)C(=O)N[C@@H](COC(F)F)C(=O)N[C@@H](Cc1ccccc1)C(=O)[C@@]1(C)CO1 [Example 4]"
system_name = "NCI-H23"
recorded_metric = "Log10GI50"
endpoint_value = "−7.51"

[[record]]
compound = "CC(C)C[C@H](NC(=O)[C@H](COC(F)F)NC(=O)[C@H](COC(F)F)NC(=O)[C@H](CCc1ccccc1)NC(=O)CN1CCOCC1)C(=O)[C@@]1(C)CO1 [Example 7]"
system_name = "NCI-H23"
recorded_metric = "Log10GI50"
endpoint_value = "−7.57"


Incoming: I have this compound here, CC(C)C[C@H](NC(=O)[C@H](COC(F)F)NC(=O)CN1CCOCC1)C(=O)N[C@@H](Cc1ccccc1)C(=O)N[C@@H](CC(C)C)C(=O)[C@@]1(C)CO1 [Example 2] , and I need its recorded Log10GI50.
Outgoing: −7.73

Incoming: Bench note: what Log10GI50 did CC(C)C[C@H](NC(=O)[C@H](COC(F)F)NC(=O)CN1CCOCC1)C(=O)N[C@@H](COC(F)F)C(=O)N[C@@H](CC(C)C)C(=O)[C@@]1(C)CO1 [Example 1] show?
Outgoing: −7.56

Incoming: Which value of Log10GI50 has been reported for CC(C)C[C@H](NC(=O)[C@H](COC(F)F)NC(=O)[C@H](COC(F)F)NC(=O)[C@H](COC(F)F)NC(=O)CN1CCOCC1)C(=O)[C@@]1(C)CO1 [Example 17] in the records?
Outgoing: −7.15
